These entries and their values trace back to patent US20260176352A1.

- system name: T1, A139 iCAPS (CB1 with ICL3 native sequence replaced with BRIL) (human, UniProt P21554 99-414)
- T1 construct: The insert stands inside the chain in place of ICL3
- T1 sequence (P21554 whole entry): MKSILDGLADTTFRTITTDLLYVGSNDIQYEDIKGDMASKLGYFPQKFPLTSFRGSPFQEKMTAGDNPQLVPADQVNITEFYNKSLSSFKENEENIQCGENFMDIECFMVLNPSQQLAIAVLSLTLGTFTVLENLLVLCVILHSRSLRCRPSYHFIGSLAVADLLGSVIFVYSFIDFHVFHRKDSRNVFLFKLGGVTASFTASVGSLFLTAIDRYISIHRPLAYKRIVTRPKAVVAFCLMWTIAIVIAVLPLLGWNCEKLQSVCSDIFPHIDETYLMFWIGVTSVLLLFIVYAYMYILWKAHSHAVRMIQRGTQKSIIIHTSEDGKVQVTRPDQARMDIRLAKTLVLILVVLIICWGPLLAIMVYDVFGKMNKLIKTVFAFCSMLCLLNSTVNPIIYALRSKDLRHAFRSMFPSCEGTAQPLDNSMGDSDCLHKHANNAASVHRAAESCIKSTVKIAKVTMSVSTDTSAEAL
- assay overview: ELISA, purified IgG on A139 CB1 iCAPS

binder: PA2LR3-P1H4 (chimeric) (antibody, V domains shown) VH: EVQLQQSGAELVRPGSSVKISCKASGYVFGNYWMNWVKQRPGQGLEWIGQIYPGDGDTNYNGKFKGKATLTADKSSSTAYMQLSSLTSEDSAVYFCARSHGNYFPYWGQGTLVTVSA VL: QIVLTQSPAIMSASLGERVTMTCTASSSVSSSYLHWYQQKPGSSPKLWIYSTSNLASGVPARFSGSGSGTSYSLTISSMEAEDAATYYCQQWSSYPLTFGAGTKLELKR
EC50: 33.5 nM

binder: PA2LR3-P4B1 (chimeric) (antibody, human IgG1, kappa, V domains shown) VH: EVQLQQSGAELVRPGSSVKISCKASGFAFSNYWMNWVKQRPGQGLEWIGQIYPGDGDTNFNGKFKGRAILTADISSNTAYMQLSSLTSEDSAVYFCARSHGNYFPYWGQGTLVTVSA VL: QIVLTQSPAIMSASLGERVTMTCTASSSVSSSYLHWYQQKPGSSPKLWIYSTSNLASGVPARFSGSGSGTSYSLTISSMEAEDAATYYCHQYHRSPLTFGAGTKLELKR
EC50: 1.41 nM
